Target: T1, Lsb1, P53281
T1 sequence (P53281 45-122, looked up): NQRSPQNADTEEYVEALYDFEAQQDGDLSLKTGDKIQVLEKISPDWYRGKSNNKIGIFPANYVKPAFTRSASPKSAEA
Experiment: SPOT array
Conditions: median of control spots 388
measurement name: SPOT intensity
# output: bare number, no unit

{"binder": "GKKVRPLLVLLLSRA", "SPOT intensity": 0}
{"binder": "ISRRRLPVIMHRLKM", "SPOT intensity": 137}
{"binder": "KLSRGRYGLPLSSRP", "SPOT intensity": 175}
{"binder": "KRRAPPPVPKKPSSR", "SPOT intensity": 1850}
{"binder": "HHNRRKPLEVYFKAT", "SPOT intensity": 0}

query: Note SPOT intensity for the binder shown: NQARKPFLLPATELS
result: 576

query: Note SPOT intensity for the binder shown: AAHKTKPSIPPKKVE
result: 0

Values were extracted from paper PMC2756588.
